# credit: paper PMC8597757

protocolDescription: Food effect assessment (100 mg suspension, high-fat meal vs fasted)
Assay type: in vivo, human
protocolConditions: human; single oral dose 100 mg (fed), suspension, following a high-fat meal, plasma, n=6; read-out: AUC0–168 (geometric mean [95% CI])
measuredAttribute: AUC(0-t) (µM·h)

[[record]]
testsmiles = "N#Cc1cc(Cl)cc(Oc2c(C(F)(F)F)ncn(Cc3cc(C(F)(F)F)c(=O)[nH]n3)c2=O)c1"
measuredattribute = "AUC(0-t)"
uom = "µM·h"
readoutvalue = 126


* * *

protocolDescription: Single-dose plasma pharmacokinetics of MK-8507 (suspension, study 1; tablet, study 2)
Type: in vivo
protocolConditions: human, po, 400 mg, single oral dose 400 mg, tablet, fasted, n=6, read-out: C168hr (geometric mean [95% CI])
measuredAttribute: concentration at 168 h (nM)

[[record]]
testsmiles = "N#Cc1cc(Cl)cc(Oc2c(C(F)(F)F)ncn(Cc3cc(C(F)(F)F)c(=O)[nH]n3)c2=O)c1"
measuredattribute = "concentration at 168 h"
uom = "nM"
readoutvalue = 1280

